Endpoint Label: melting point (°C)

Examples with answers:
Cc1ccnc2c1ccc1cccnc12 = 145
C#CCCCCCC#C = -21
Cc1ccc(C2(O)CCN(CCCC(=O)c3ccc(F)cc3)CC2)cc1 = 118

A. Brc1cc(Br)c(Oc2c(Br)cc(Br)c(Br)c2Br)c(Br)c1Br
B. CCC1(CC)COC(=O)NC1=O
C. CCc1ccc2c(c1)CCCC2
Ask: Write the entries in order, lowest recorded melting point first. Respond with an ordered listing of the labels, as requested.
Reply: C, B, A
(C: -70 °C, B: 97.5 °C, A: 206 °C)

* * *

Endpoint Label: melting point (°C)

Examples with answers:
O=C(CCl)c1cccc(C(=O)CCl)c1 = 90
CCOc1ccccc1C=O = 21
CC1CC(OC(=O)c2ccccc2)CC(C)(C)N1 (centres undefined) = 70.5
CC(=O)N(C)C(=O)COC(=O)c1ccccc1 = 102
CC(=O)CC(=O)Nc1ccccc1Cl = 105

P. c1ccc2nonc2c1
Q. Cc1c(N=C=O)cccc1N=C=O
R. CCOC(=O)c1[nH]c(C)c(Br)c1C
S. CN(C1=NC(=Cc2ccccc2)C(=O)N1c1ccccc1)c1ccccc1
Ask: Order these by melting point, descending, and give the full ranking. Respond with an ordered listing of the labels, as requested.
Reply: S, R, P, Q
(S: 207 °C, R: 142 °C, P: 54 °C, Q: 18.3 °C)

Taken from a melting point compilation (Tetko et al.).
